tested on: EPHA8; settings: concentration: 1 μM,replicates: in singlicate; n = 1;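 further: KINOMEscan kinase panel screen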
# %Inh values compiled below
measured-metric: %Inh (%)

{"columns": ["compound", "study-system", "measured-metric", "experimental-value"],
 "data": [
  ["O=C(NCCCN1CCOC1=O)c1cnc(NCc2cc(Cl)ccc2Cl)nc1NC1CCCC1", "EPHA8", "%Inh", 4],
  ["C[C@H]1Oc2cc(cnc2N)-c2c(nn(C)c2C#N)CN(C)C(=O)c2ccc(F)cc21", "EPHA8", "%Inh", 2],
  ["CCn1c(-c2nonc2N)nc2c(C#CC(C)(C)O)nc(OCCN)cc21.Cl.Cl [GSK902056]", "EPHA8", "%Inh", 2],
  ["CCN(CC)CCCCNc1ncc2cc(-c3c(Cl)cccc3Cl)c(NC(=O)NC(C)(C)C)nc2n1", "EPHA8", "%Inh", 99.9]
]}
